- study.target: Substance-K receptor (Oryctolagus cuniculus, UniProt P79218)
- Sequence (P79218 whole entry): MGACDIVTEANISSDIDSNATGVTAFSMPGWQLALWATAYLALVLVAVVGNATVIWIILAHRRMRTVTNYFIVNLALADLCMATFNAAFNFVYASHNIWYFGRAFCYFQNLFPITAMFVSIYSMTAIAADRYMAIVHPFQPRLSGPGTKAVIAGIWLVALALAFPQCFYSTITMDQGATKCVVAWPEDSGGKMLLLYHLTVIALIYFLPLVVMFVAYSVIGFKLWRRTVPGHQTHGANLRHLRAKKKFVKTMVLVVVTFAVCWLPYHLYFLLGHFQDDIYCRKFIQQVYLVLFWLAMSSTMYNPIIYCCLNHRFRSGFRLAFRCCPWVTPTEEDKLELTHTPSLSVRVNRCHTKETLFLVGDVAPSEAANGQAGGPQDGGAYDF
- test.method.notes: Functional potency against Tachykinin receptor 2 (NK2) in rabbit pulmonary artery assay
- cond: read-out: pA2 (converted)
assay.endpoint: Kb (nM)

Study these solved cases before continuing.
{"compound": "CN(CC(CCN1CCC(O)(c2ccccc2)CC1)c1ccc(Cl)c(Cl)c1)C(=O)c1ccccc1 (stereo not drawn)", "Kb / nM": 0.316}
{"compound": "CS(=O)(=O)N1CCN(C2CN(CCC3(c4ccc(Cl)c(Cl)c4)CCC(=O)N(Cc4ccccc4)C3)C2)CC1 (stereo not drawn)", "Kb / nM": 0.631}
{"compound": "O=C1CCC(CCN2CC(N3CCOCC3)C2)(c2ccc(Cl)c(Cl)c2)CN1Cc1ccccc1 (stereo not drawn)", "Kb / nM": 0.501}
{"compound": "CN1CCN(C2CN(CCC3(c4ccc(Cl)c(Cl)c4)CCC(=O)N(Cc4ccccc4)C3)C2)CC1 (stereo not drawn)", "Kb / nM": 15.8}

1. Cc1ccc(CN2CC(CCN3CC(N4CCOCC4)C3)(c3ccc(Cl)c(Cl)c3)CCC2=O)cc1 (stereo not drawn)
2. CC(=O)NC1CCN(C2CN(CCC3(c4ccc(Cl)c(Cl)c4)CCC(=O)N(CC4CC4)C3)C2)CC1 (stereo not drawn)
3. O=C1CCN(C2CN(CCC3(c4ccc(Cl)c(Cl)c4)CCC(=O)N(CC4CC4)C3)C2)CC1 (stereo not drawn)
4. O=C1CCC(CCN2CC(N3CCOCC3)C2)(c2ccc(Cl)c(Cl)c2)CN1C1CCCCC1 (stereo not drawn)
5. CS(=O)(=O)NC1CCN(C2CN(CCC3(c4ccc(Cl)c(Cl)c4)CCC(=O)N(CC4CC4)C3)C2)CC1 (stereo not drawn)
Incoming: Arrange these 5 compounds in increasing order of Kb. Please, when replying, give the labels in the order that was requested.
Outgoing: 4, 3, 1, 5, 2
(4: 0.126 nM, 3: 1.26 nM, 1: 6.31 nM, 5: 10 nM, 2: 15.8 nM)

P. CCOC1CCN(C2CN(CCC3(c4ccc(Cl)c(Cl)c4)CCC(=O)N(CC4CC4)C3)C2)CC1 (stereo not drawn)
Q. O=C1CCC(CCN2CC(N3CCOC(c4ccccc4)C3)C2)(c2ccc(Cl)c(Cl)c2)CN1Cc1ccccc1 (stereo not drawn)
Incoming: Compare P and Q and name the one whose reported Kb is smaller. Your answer should be the label of the entry you select.
Outgoing: P
(P: 6.31 nM, Q: 10 nM)
